In this section, each of the molecules is paired with its reported AC50.
- system-under-test: Heat shock protein HSP 90-alpha (Homo sapiens)
- Type: functional, organism-based
Calls of active or inactive are those of the source.

Reference set, count: 4
C=CCN1C(=O)/C(=C2/C(=O)Nc3ccccc32)c2ccccc21 :: 1.17 µM (active)
O=C(OCc1ccccc1)c1ccc(NCc2cc(O)ccc2O)cc1 :: 8.63 µM (active)
Cc1cc(C)c2c(N=NN3CCCCC3)[nH]nc2n1 :: 4.01 µM (active)
C[C@@H]1C[C@@H]([C@H](O)CC2CC(=O)NC(=O)C2)C(=O)[C@@H](C)C1 [CYCLOHEXIMIDE] :: < 0.195 µM (active)

[ask] Find the measured AC50: item COc1cccc(-c2nc(NC3CCCC3)c3ccccc3n2)c1O , target or system Heat shock protein HSP 90-alpha (Homo sapiens).
[reply] 3.8 µM (active)
